This collection of values is drawn from ChEMBL document CHEMBL5291721.

Parameter 'readout' = AC50; parameter 'system' = Sodium-dependent dopamine transporter (Homo sapiens). Also: assay procedure not described here.
Sequence (Q01959 whole entry): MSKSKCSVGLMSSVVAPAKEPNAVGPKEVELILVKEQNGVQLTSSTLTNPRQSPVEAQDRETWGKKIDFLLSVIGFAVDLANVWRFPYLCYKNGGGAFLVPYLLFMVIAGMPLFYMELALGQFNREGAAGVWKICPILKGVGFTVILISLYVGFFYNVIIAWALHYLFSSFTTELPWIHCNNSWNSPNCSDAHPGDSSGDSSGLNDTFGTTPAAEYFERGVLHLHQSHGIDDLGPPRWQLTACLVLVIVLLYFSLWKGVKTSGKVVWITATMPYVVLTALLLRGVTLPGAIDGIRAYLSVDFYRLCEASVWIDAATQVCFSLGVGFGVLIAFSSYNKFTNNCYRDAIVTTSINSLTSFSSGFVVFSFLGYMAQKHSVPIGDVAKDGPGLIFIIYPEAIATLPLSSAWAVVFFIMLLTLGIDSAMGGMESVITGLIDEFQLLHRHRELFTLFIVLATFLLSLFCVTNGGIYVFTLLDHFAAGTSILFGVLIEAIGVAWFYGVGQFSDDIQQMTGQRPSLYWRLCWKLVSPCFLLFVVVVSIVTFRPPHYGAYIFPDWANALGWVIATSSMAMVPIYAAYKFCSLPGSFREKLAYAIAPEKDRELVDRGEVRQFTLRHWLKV

Observe how each entry below is paired with its result.
| Compound | AC50 |
| --- | --- |
| CCC(=O)OCC(=O)[C@@]1(OC(=O)CC)[C@@H](C)C[C@H]2[C@@H]3CCC4=CC(=O)C=C[C@]4(C)[C@@]3(F)[C@@H](O)C[C@@]21C [BETAMETHASONE DIPROPIONATE] | > 30 µM |
| Cc1cc2nc3c(=O)[nH]c(=O)nc-3n(C[C@H](O)[C@H](O)[C@H](O)COP(=O)(O)O)c2cc1C [RIBOFLAVIN 5'-PHOSPHATE] | > 30 µM |
| N=C(N)c1ccc2cc(OC(=O)c3ccc(N=C(N)N)cc3)ccc2c1 | 2.8 µM |
| CCC(C)(Oc1ccc(C2(c3ccc(OC(C)(CC)C(=O)O)cc3)CCCCC2)cc1)C(=O)O (stereo not drawn) [CLINOFIBRATE] | > 30 µM |
| CN1CCN(c2c(F)cc3c(=O)c(C(=O)O)cn4c3c2SCC4)CC1 | > 30 µM |
| Cc1cc(CC(=O)O)n(C)c1C(=O)c1ccc(Cl)cc1 [ZOMEPIRAC] | > 30 µM |
| C#C[C@]1(O)CC[C@H]2[C@@H]3CCC4=CC(=O)CCC4=C3C=C[C@@]21CC | 25 µM |
| CCCN(CCC)CCc1cccc2c1CC(=O)N2 | > 30 µM |
| C[C@]1(COc2ccc(N3CCC(Oc4ccc(OC(F)(F)F)cc4)CC3)cc2)Cn2cc([N+](=O)[O-])nc2O1 | > 10 µM |
| O=C1CN2Cc3c(ccc(Cl)c3Cl)N=C2N1 [ANAGRELIDE] | > 30 µM |

**Q:** May I ask what AC50 has been recorded for CCCC[C@H](C)C[C@H](O)/C=C/[C@H]1[C@H](O)CC(=O)[C@@H]1CCCC/C=C/C(=O)O ?
**A:** > 30 µM
